system: Mycobacterium kansasii; experiment: Antimycobacterial activity against Mycobacterium kansasii isolate 6509/96 after 7 days by micromethod; assay type: functional; details: isolate 6509/96, 168 h
MEASUREMENT_KIND: log10(MIC) (log10 of the value in µM)

compound="NNC(=O)c1ccncc1 [ISONIAZID]" number=0.60
compound=Cc1ccc(OC(=O)CN2C(=O)CSC2=S)cc1 number=3.00
compound=O=C(O)CN1C(=O)/C(=C/c2ccc(O)cc2)SC1=S number=3.00
compound=O=C(O)CN1C(=O)/C(=C/c2cc(Cl)ccc2O)SC1=S number=1.51
compound="O=C(O)CN1C(=O)CSC1=S [RHODANINE-3-ACETIC ACID]" number=3.00
compound=O=C(CN1C(=O)CSC1=S)Oc1ccc(Cl)cc1 number=2.40
compound=COc1ccc(NC(=O)CN2C(=O)CSC2=S)cc1 number=2.70
compound=O=C(O)CN1C(=O)/C(=C/c2ccccn2)SC1=S number=2.70
compound=COc1ccc(OC(=O)CN2C(=O)CSC2=S)cc1 number=3.00
compound=CC(=O)Oc1ccccc1/C=C1\SC(=S)N(CC(=O)O)C1=O number=1.80
compound=O=C(O)CN1C(=O)/C(=C/c2ccccc2O)SC1=S number=1.51
compound=O=C(CN1C(=O)CSC1=S)Nc1ccc(Cl)cc1 number=2.10
compound=O=C(CN1C(=O)/C(=C/c2cc(Cl)ccc2O)SC1=S)Nc1ccc(Cl)cc1 number=2.10
compound=O=C(O)CN1C(=O)/C(=C/c2cccc(O)c2)SC1=S number=2.70
compound=O=C(CN1C(=O)/C(=C/c2ccccc2O)SC1=S)Nc1ccc(Cl)cc1 number=1.80
compound=O=C(CN1C(=O)CSC1=S)Oc1ccccc1 number=2.70
compound=O=C(CN1C(=O)CSC1=S)Nc1ccc(C(F)(F)F)cc1 number=3.00
compound=O=C(CN1C(=O)CSC1=S)Oc1ccc([N+](=O)[O-])cc1 number=2.70
